// provenance: ChEMBL document CHEMBL1155944

Form field: Activity (one value per entry).
TGT: GABA A receptor alpha-2/beta-2/gamma-2 (Rattus norvegicus) (UniProt P18508+P23576+P63138)
MEASUREMENT DESCRIPTION: Intrinsic activity at recombinant rat GABAA alpha-2-beta-3-gamma-2 receptor expressed in HEK293 cells assessed as induction of current at 1 mM by whole-cell patch-clamp technique relative to GABA
Type: cell-based

>>> print(df.to_string())
                compound  result
0  Cl.Sc1nnc(C2CCNCC2)o1     23%
1     Oc1nnc(C2CCNCC2)o1     17%
2     Cc1nnc(C2CCNCC2)o1   < 10%

GET /values?readout=Activity&item= NCc1nnc(O)o1 0.88
